Data credit: PubChem BioAssay (NCI)

# System: 786-0 renal
# test.method.notes: NCI tumour cell line growth inhibition, 48 h
endpoint.label: TGI

Notebook: `CN(C)c1ccc2nc(CC(O)(C(F)(F)F)C(F)(F)F)ccc2c1` , TGI read as > 10 µM

The compound listed as `O=C1c2ccccc2C(=O)c2c(NCCCN3CCOCC3)ccc(NCCCN3CCOCC3)c21` has a reported TGI of 16.7 µM

# TGI (compound: CCOC(=O)C(Cc1ccc(N(CCCl)CCCl)cc1)NC(=O)CCCN1C(=O)CN=C(c2ccccc2)c2cc(Cl)ccc21 (stereo not given) ) is > 77.5 µM

The reported value for CCCNC(=O)N(C)C(=O)N1N=C(c2ccccc2)C1c1ccccc1 (stereo not given) in terms of TGI is > 100 µM

The compound listed as `O=C1C(S(=O)(=O)c2ccccc2)=C(CS(=O)(=O)c2ccccc2)[C@@H](OCc2ccccc2)[C@@H]1OCc1ccccc1` shows TGI equal to > 100 µM

// TGI lookup, compound = N#CC1C(=O)NC(c2ccccc2[N+](=O)[O-])c2sc3c(F)cccc3c21 (stereo not given) , result: > 100 µM

Record `COc1ccc(C(=O)/C=C/c2ccc(OCC(=N)N)cc2)cc1` , field TGI: 29.9 µM

Short answer for `COc1ccc(-c2cc(=O)c3c(O)cc(O)cc3o2)c(OC)c1OC` : TGI was > 100 µM

The compound listed as `O=c1c2c(F)c(F)c(F)c(F)c2sc2nccn12` shows TGI equal to 29.3 µM

GET /value?item= `CCOC(=O)C(CCc1ncnc2c1ncn2Cc1ccccc1)(CCc1ncnc2c1ncn2Cc1ccccc1)C(=O)OCC` &field=TGI returns > 100 µM

Per the records, this compound ( `CC[C@H](C)[C@H](NC(=O)[C@@]1(O)[C@H](O)[C@]2(CC)C=CCN3CC[C@@]4(c5cc(Br)c(OC)cc5N(C)[C@@H]14)[C@@H]32)C(=O)OC` ) has TGI equal to > 100 µM

# compound CC1C2CC=CC(=O)[C@@]2(C)CCC12OCCO2 (stereo not given in full) ; its TGI = > 100 µM

Measured TGI, `CN1CCN(Cc2ccc(NC(=O)c3cncc(C#Cc4cnc(N)c5cnccc45)c3)cc2C(F)(F)F)CC1` : 7.73 µM

Reported TGI for `COC1=CC(=O)c2nc(Cl)ccc2C1=O` was 3.76 µM

TGI for `Cc1ccc(S(=O)(=O)Nc2ccc(-c3cc(-c4cccc(F)c4)c(C#N)c(N)n3)cc2)cc1` is 3.12 µM

Lab note: measured TGI of CC1=CCC2CC1NC(=O)CCOCCC(=O)NC2(C)C (stereo not given) was > 100 µM

Documented TGI of CC1CN=C(Nc2ccc(F)c(Cl)c2)S1 (stereo not given) : > 100 µM

// TGI lookup, compound = `O=c1oc2ccc3ccccc3c2cc1-c1nc2ccc([N+](=O)[O-])cc2o1` , result: > 55.3 µM

For `COc1ccc(/C=C2\c3cc(OC)c(OC)c(OC)c3CC[C@@H]2O)cc1F` the compound record lists TGI as > 100 µM

Record CCCNC(=O)N1CC(CN2CCN(c3ccccc3)CC2)O/C1=N/C(=O)Nc1ccccc1 (stereo not given) . Reported TGI: > 100 µM

* * *

# Test system: A549 NSCLC
# test.method.notes: NCI tumour cell line growth inhibition, 48 h
endpoint.label: TGI

Form field TGI for item `O=[N+]([O-])c1ccc(Sc2ccncn2)c([N+](=O)[O-])c1` on A549 NSCLC: 16.4 µM

The observed TGI for `CCC[CH2][Pb]([Cl])([CH2]CCC)[CH2]CCC` when tested with A549 NSCLC stands at 0.0936 µM

// TGI (A549 NSCLC) for `O=C(NCCCN1CCN(CCCNC(=O)Nc2cccc3ccccc23)CC1)Nc1cccc2ccccc12` = 33.5 µM

# `COc1ccc(C(=O)/C=C/c2ccc(OCC(=N)N)cc2)cc1` with A549 NSCLC: TGI is 33.1 µM

Known value: A549 NSCLC TGI of the molecule `CC(=O)Nc1ccc(Sc2nnc(NC(C)=O)s2)cc1` equals > 100 µM

Field TGI (A549 NSCLC), entry CSCCC(C(=O)O)N(CC1(O)OCC(O)C(O)C1O)N=O (centres undefined) : > 100 µM

Observed TGI, A549 NSCLC, COC(=O)C(=O)C(C(=O)C(=O)Nc1cc(C)ccc1C)c1nc2ccc(C(=O)c3ccccc3)cc2[nH]c1=O (centres undefined) : > 100 µM

Known value: A549 NSCLC TGI of the molecule `Nc1nc(=S)n(-c2ccc(Cl)cc2)c2nc3ccccc3cc12` equals > 100 µM

Param item: COC1CC(O[C@H]2CC[C@@]3(C)[C@@H](CC[C@]4(O)[C@@H]3CC[C@]3(C)[C@@H](C(C)=O)[C@H](OC(=O)CC(C)C)[C@@H](OC(=O)c5ccccc5)[C@@]34O)C2)OC(C)C1OC1CC(OC)C(OC2OC(C)C(O)C(OC)C2O)C(C)O1 (some centres undefined) ; param system: A549 NSCLC; output TGI: > 25 µM

Simply: Cc1ccc(S(=O)(=O)N2CCc3ccc(O)c4c3C2Cc2ccc3c(c2-4)OCO3)cc1 (centres undefined) , A549 NSCLC, TGI = 12.4 µM

I looked up `Nc1c(F)cc(-c2nc3cc(F)ccc3[se]2)cc1Br` and its TGI for A549 NSCLC was > 100 µM

Value sought: TGI, system A549 NSCLC, item `COc1cc2c[n+](C)c3c(c2cc1OC)Cc1cc2c(cc1-3)OCO2` . Result: > 100 µM

Short answer on A549 NSCLC for `Nc1ncnc2c1ccn2[C@@H]1O[C@H]([C@H](O)c2ccc(Cl)c(F)c2)[C@@H](O)[C@H]1O` , TGI: > 100 µM

The molecule `O=[N+]([O-])c1cc2c([N+](=O)[O-])cccc2o1` , when measured on A549 NSCLC, yielded TGI of > 100 µM

Hey, A549 NSCLC data for `c1ccc([P+](CCCCCC[P+](c2ccccc2)(c2ccccc2)c2ccccc2)(c2ccccc2)c2ccccc2)cc1` : TGI came out at > 100 µM

A549 NSCLC assay, molecule `COc1ccc(/C=C2\c3cc(OC)c(OC)c(OC)c3CC[C@@H]2O)cc1F` , recorded TGI = > 100 µM

Record CC1C(c2ccccc2O)c2cc3c(cc2OC1N1CCOCC1)OCO3 (centres undefined) / A549 NSCLC, TGI recorded as 80.7 µM

A549 NSCLC assay, molecule CCOC(=O)C(C(O)c1ccc([N+](=O)[O-])cc1)P(=O)(OCC)OCC (centres undefined) , recorded TGI = > 100 µM

Assay A549 NSCLC, sample `O=c1cc(-c2ccccc2)[nH]c2cc(Cl)ccc12` , TGI read: > 100 µM

The reported TGI value, A549 NSCLC, for O=C1NC(c2cccc(OCc3ccccc3)c2)Nc2ccccc21 (centres undefined) reads > 49.6 µM

Reported TGI (A549 NSCLC) for entry `O=C(O[C@H]1CCN2C[C@H]3C[C@H](CN4C(=O)CCC[C@H]34)[C@@H]2C1)c1ccc(O)cc1` is > 100 µM

Tested on A549 NSCLC, the item `COc1cc2ccc1OCc1cccc(n1)COc1ccc(cc1OC)C=NCCNCCN=C2` showed TGI equal to > 100 µM

Here `CCCCCCCCCCCCCB(O)O` was tested on A549 NSCLC, and its TGI came to > 100 µM

A549 NSCLC data for CCCNC(=O)N1CC(CN2CCN(c3ccccc3)CC2)O/C1=N/C(=O)Nc1ccccc1 (centres undefined) ; its TGI: > 100 µM

# value of TGI, A549 NSCLC, item `COc1cc(/C=C/C(=O)c2c(C)nc3ccccc3c2C)ccc1OCCCN1CCN(C(=O)c2ccco2)CC1` = 27.3 µM

Reported A549 NSCLC TGI for item `C=C(CCCO)[C@@H]1CC[C@@](C)(O)[C@H]1C` was > 100 µM

Lab note: molecule `C=C1Cc2cc(OC)c(OC)c(OC)c2-c2ccc(SC)c(=O)cc21` tested on A549 NSCLC; recorded TGI was 19.5 µM

The molecule `CCCCC(=O)Nc1ccc2c(C)cc(-c3ccc(-c4cc(-c5ccc(C)cc5)cc(-c5ccc(-c6cc(C)c7ccc(NC(=O)CCCC)nc7n6)cc5)n4)cc3)nc2n1` on A549 NSCLC: TGI was > 100 µM

Noted TGI for `CCCC(=O)NC(Nc1ccc(S(=O)(=O)Nc2ccc(OC)nn2)cc1)(C(F)(F)F)C(F)(F)F` , tested on A549 NSCLC: > 100 µM

TGI for A549 NSCLC with input `O=C1NC(=S)NC(=O)C1=C/C=C/c1ccc([N+](=O)[O-])cc1` equals 50.4 µM

Response field TGI (A549 NSCLC) for item `O=C1/C(=C/c2ccc(Cl)cc2)CSC/C1=C\c1ccc(Cl)cc1` : 10.1 µM

Hey, A549 NSCLC data for COC1/C=C/C(C)C(C(C)C(OC)C(C)CCC(=O)C(C)C(CC(=O)O)OC)OC(=O)/C=C/C=C(\C)CC(OC)CC2=CC(=O)O[C@H](C2)C(C)C(OC)CC(OC)/C=C/C(C)C(OC)C1 (some centres undefined) : TGI came out at > 4.35 µM

Let me check: CCOP1(=O)C=C(C)C(=C(Cl)Cl)C(C)=C1 (centres undefined) , system A549 NSCLC, measured TGI is 58.8 µM

Form field TGI for item C=CC1(C)OC2(CCN(C(=O)OCC)CC2)OC1C (centres undefined) on A549 NSCLC: > 100 µM

Entry `COc1cc(C=O)cc(O)c1O` , tested on A549 NSCLC, has a reported TGI of > 100 µM

With A549 NSCLC as the test system, O=C1C2C3C=CC(C2C(=O)N1CN1CCSCC1)C1C2C(=O)N(CN4CCSCC4)C(=O)C2C31 (centres undefined) showed TGI of > 100 µM

Log: A549 NSCLC, molecule `CCOC(=O)C(=O)Nc1ccccc1C(C)C` , TGI = > 100 µM

Per the reported A549 NSCLC data, `O=c1c(Cl)cc2nc3ccccc3sc-2c1Cl` has TGI of 40.9 µM

Tested on A549 NSCLC: Cc1ccc(NC(=O)OCC(COc2ccc(Cl)cc2Cl)OC(=O)Nc2ccc(C)cc2)cc1 (centres undefined) . Observed TGI: > 100 µM
